- PROTOCOL_DETAILS: log P by HPLC on reversed phase columns (EEC directive 79/831 Annex V.A8)
- Assay type: physicochemical
- EXPERIMENTAL_CONDITIONS: Table 1, formula (I); HPLC/LC-MS at pH 2.7, 0.1% formic acid in water / acetonitrile, gradient 10% to 95%
READOUT_LABEL: logP^[a]

CCON=C1CC(C)c2c(NC(=O)c3cc(C)cnc3C(F)F)cccc21 (racemic) : 2.99^[a]
CC(C)CC1CC(C)c2c(NC(=O)c3cccnc3C(F)F)cccc21 (centres unmarked) : 4.15^[a]

Query: Given CCCCON=C1CCc2c(NC(=O)c3cccnc3C(F)F)cccc21 , state its recorded logP^[a].
Result: 3.44^[a]

Query: Now this one: CC(C)C1Cc2c(NC(=O)c3ccc(Cl)nc3C(F)F)cccc2C1(C)C (racemic)
Result: 4.77^[a]

Query: Now this one: CC1CC(C)(C)c2cccc(NC(=O)c3cccnc3C(F)F)c21 (centres unmarked) [Example 13]
Result: 3.25^[a]
